Numbers sourced from paper PMC11802874.

- Method notes: Pharmacokinetic study after single dose in C57BL/6N mice
- Assay type: in vivo, mouse
- Test parameters: male, C57BL/6N, mouse, ip; Liver, 10 mg/kg
Recorded endpoint: Cmax (ng/mL)
Form entry: value (ng/mL) — number only.

[in] Param item = NC(=O)c1cc(Cn2cc(-c3c(-c4ccc(Cl)cc4)nc4cc(F)ccn34)nn2)ccc1Cl [MI-883] ; retrieve measured Cmax.
[out] 14100

----------
- Target or system: human CAR ligand-binding domain (LBD) (Homo sapiens, UniProt Q14994)
- Sequence (Q14994 109-348 isoform Q14994-2 limits assumed, other chains not shown): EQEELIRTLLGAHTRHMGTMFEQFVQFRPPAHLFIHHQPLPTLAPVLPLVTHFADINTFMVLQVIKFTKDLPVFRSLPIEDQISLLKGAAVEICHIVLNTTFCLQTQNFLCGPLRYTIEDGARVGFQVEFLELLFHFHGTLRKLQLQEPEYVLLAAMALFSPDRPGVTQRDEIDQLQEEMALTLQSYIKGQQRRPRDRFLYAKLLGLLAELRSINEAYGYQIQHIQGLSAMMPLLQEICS
- Method notes: TR-FRET CAR coactivator assay (LanthaScreen)
- Test parameters: recombinant CAR LBD
Recorded endpoint: EC50 (nM)
Form entry: value (nM) — number only.

[in] Param item = NC(=O)c1cc(Cn2cc(-c3c(-c4ccc(Cl)cc4)nc4cc(F)ccn34)nn2)ccc1Cl ; retrieve measured EC50.
[out] 73
